- Tested on: Cavia porcellus
- ASSAY_COMMENT: Relative potency against bronchoconstrictions, induced by intravenous administration of histamine at doses […] in guinea pig.
- Format: functional
PROPERTY_NAME: Relative potency
One number for each entry.

The following compounds have reported results that may help.
CCCCC[C@H](O)/C=C/[C@H]1[C@@H](SCCO)CC(=O)[C@@H]1C/C=C\CCCC(=O)OC = 10
CCCCC(O)C/C=C/[C@H]1[C@H](SCCO)CC(=O)[C@@H]1CCCCCCC(=O)O (mixture of isomers) = 24
CCCCCC/C=C/[C@H]1[C@H](SCCO)CC(=O)[C@@H]1C/C=C\CCCC(=O)OC (racemic) = 14

Here is another compound to look at.
Which Relative potency value is on record for CCCCC[C@H](O)/C=C/[C@H]1C(SCCN(C)C)CC(=O)[C@@H]1C/C=C\CCCC(=O)OC (stereo not given in full) ?
14

Just for reference, ChEMBL document CHEMBL1121494 is where these values come from.
